Target: T1, human LTBR on cells (human, UniProt P36941 31-435)
T1 construct: also called recombinant human LTBR CHO cells; CHO-K1 cells overexpressing human LTBR
Assay: FACS CHO-huLTBR, 0.08 µg/ml

binder | MFI (MFI)
P1AE9459 (antibody, human IgG1, kappa, L234A L235A, V domains shown, human IgG1 PG LALA; from transgenic rabbit immunization) VH: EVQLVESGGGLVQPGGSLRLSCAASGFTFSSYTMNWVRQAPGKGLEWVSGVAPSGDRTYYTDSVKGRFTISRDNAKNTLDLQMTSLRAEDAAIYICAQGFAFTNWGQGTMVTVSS VL: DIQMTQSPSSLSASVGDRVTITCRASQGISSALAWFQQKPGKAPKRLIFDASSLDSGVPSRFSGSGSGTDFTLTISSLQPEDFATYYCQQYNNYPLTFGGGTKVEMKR | 22000
